target: human adrenergic beta-3 receptor (ADRB3) (Homo sapiens); construct: host or cells: CHO-K1; assay: Competitive binding assay, CHO-K1-ADRB3 cell membranes, [3H]CGP-12177 radioligand; conditions: CHO-K1-ADRB3 membranes, 5 nM [3H]CGP-12177, 90 min 27°C, n = 3 in triplicates; read-out: Ki ADRB3 experimental
Sequence (P13945 whole entry): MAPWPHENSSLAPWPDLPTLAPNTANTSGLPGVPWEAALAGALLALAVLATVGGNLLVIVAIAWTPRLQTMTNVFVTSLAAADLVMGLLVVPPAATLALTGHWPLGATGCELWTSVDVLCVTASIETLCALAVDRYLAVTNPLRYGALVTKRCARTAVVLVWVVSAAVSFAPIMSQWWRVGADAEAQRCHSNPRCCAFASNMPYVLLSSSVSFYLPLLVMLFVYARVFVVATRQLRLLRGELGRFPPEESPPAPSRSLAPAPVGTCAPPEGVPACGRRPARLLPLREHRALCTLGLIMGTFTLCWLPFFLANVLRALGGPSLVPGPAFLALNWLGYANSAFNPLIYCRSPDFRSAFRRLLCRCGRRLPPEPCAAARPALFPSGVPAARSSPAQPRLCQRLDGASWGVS
measuredQuantity: Ki (µM)

molecule | endpointResult
COCC1=C(C(=O)OC)[C@H](c2ccc(F)c(F)c2)N(C(=O)NCCCN2CCC(c3cccc(NC(C)=O)c3)CC2)C(=O)N1 | 14.5
COCC1=C(C(=O)OCCF)C(c2ccc(F)c(F)c2)N(C(=O)NCCCN2CCC(c3cccc(NC(C)=O)c3)CC2)C(=O)N1 (centres unmarked) | 65.1
